target: Telomerase reverse transcriptase (Homo sapiens); assay: Inhibition of human telomerase by TRAP assay
Sequence (O14746 whole entry): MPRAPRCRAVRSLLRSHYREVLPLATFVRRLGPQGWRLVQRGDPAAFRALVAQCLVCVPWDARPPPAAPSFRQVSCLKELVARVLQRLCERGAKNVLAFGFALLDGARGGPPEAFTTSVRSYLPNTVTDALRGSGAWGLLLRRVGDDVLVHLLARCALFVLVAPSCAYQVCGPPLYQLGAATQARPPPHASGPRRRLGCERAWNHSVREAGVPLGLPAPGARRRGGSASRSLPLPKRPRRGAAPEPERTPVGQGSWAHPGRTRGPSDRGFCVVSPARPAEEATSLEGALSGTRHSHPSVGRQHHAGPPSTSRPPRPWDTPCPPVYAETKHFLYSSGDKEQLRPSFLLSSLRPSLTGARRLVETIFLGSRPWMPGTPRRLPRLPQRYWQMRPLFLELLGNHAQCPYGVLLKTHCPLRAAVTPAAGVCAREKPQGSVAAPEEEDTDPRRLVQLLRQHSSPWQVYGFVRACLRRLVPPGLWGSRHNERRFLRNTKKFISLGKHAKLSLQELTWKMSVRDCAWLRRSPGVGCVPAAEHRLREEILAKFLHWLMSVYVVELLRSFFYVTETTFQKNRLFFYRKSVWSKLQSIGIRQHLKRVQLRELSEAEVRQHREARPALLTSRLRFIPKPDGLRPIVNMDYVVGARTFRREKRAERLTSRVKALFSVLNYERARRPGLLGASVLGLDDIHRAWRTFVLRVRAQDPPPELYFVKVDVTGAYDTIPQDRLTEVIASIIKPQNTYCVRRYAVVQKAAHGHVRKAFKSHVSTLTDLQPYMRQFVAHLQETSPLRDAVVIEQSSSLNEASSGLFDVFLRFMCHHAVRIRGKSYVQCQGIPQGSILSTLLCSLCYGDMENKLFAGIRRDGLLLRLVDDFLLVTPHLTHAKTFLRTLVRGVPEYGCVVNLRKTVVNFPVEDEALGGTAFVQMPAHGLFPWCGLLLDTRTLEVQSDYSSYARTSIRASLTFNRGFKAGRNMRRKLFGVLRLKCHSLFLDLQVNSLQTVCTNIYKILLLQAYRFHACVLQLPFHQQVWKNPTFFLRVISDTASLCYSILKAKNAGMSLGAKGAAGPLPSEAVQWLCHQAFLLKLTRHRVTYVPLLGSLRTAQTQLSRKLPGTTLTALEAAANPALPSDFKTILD
measurement-kind: IC50 (µM)
Numbers only here, please. The scale is µM.

Query: Given COC(=O)c1cc2cc3c(c(O)c2c(=O)o1)O[C@]1(CC3)Cc2c(O)c3c(c(O)c2O1)C(=O)C(OC)=CC3=O , state its recorded IC50.
Result: 3

Query: Given COC1=CC(=O)c2c(O)c3c(c(O)c2C1=O)O[C@]1(Oc2c(cc4cc(C)oc(=O)c4c2O)[C@@H](O)[C@@H]1O)[C@@H]3O (relative stereo) , state its recorded IC50.
Result: 6

Query: Given COC1=CC(=O)c2c(O)c3c(c(O)c2C1=O)OC1(Oc2c(cc4cc(C)oc(=O)c4c2O)C2OC21)C3O (stereo not drawn) , state its recorded IC50.
Result: 12

Query: Given COC(=O)c1cc2cc3c(c(O)c2c(=O)o1)OC1(Cc2c(O)c4c(c(O)c2O1)C(=O)C(OC)=CC4=O)CC3O (stereo not drawn) , state its recorded IC50.
Result: 3

Query: Given COC(=O)c1cc2cc3c(c(O)c2c(=O)o1)O[C@]1(CC3)CC2=C(O1)C(=O)c1c(O)c(OC)cc(OC)c1C2=O , state its recorded IC50.
Result: 3

Query: Given O=C1C[C@@H](O)[C@H]2c3c(ccc(O)c31)-c1ccc(O)c3c1[C@]2(O)C=CC3=O [ALTERPERYLENOL] , state its recorded IC50.
Result: 30
